Every entry's value here was drawn from ChEMBL document CHEMBL3120105.

# assay-method-text: Inhibition of Hepatitis C virus genotype 1a full-length NS3/NS4A protease assessed as overall/observed affinity by surface plasmon resonance biosensor-based interaction kinetic analysis
# Set-up: species or system Hepatitis C virus subtype 1a
Where a SMILES comes first, the peptide text is derived from it. [ ]: non-standard residue; d: D form. dGla = N[C@H](CC(C(=O)O)C(=O)O)C(=O)O; Cha = N[C@@H](CC1CCCCC1)C(=O)O
# maps each entry to its Kd
The figure you give is taken to be in nM; do not add the unit.

Lookup result for CCC[C@H](NC(=O)[C@@H]1[C@H]2CCC[C@H]2CN1C(=O)[C@@H](NC(=O)[C@@H](NC(=O)c1cnccn1)C1CCCCC1)C(C)(C)C)C(=O)C(=O)NC1CC1 [TELAPREVIR] ; measured Kd: 17

Lookup result for COc1ccc2c(O[C@@H]3C[C@H]4C(=O)N[C@]5(C(=O)O)C[C@H]5/C=C\CCCCC[C@H](NC(=O)OC5CCCC5)C(=O)N4C3)cc(-c3csc(NC(C)C)n3)nc2c1 [CILUPREVIR] ; measured Kd: 2.1

Lookup result for CC[C@H](C)[C@H](NC(=O)[C@H](CC(C)C)NC(=O)[C@@H](CC(C(=O)O)C(=O)O)NC(=O)[C@H](CC(=O)O)NC(C)=O)C(=O)N[C@@H](CC1CCCCC1)C(=O)N[C@@H](CS)C(=O)O (Ac-D[dGla]LI[Cha]C-OH) ; measured Kd: 17000

Lookup result for CC(C)(C)OC(=O)N[C@H]1CCCCC/C=C\[C@@H]2C[C@@]2(C(=O)NS(=O)(=O)C2CC2)NC(=O)[C@@H]2C[C@@H](OC(=O)N3Cc4cccc(F)c4C3)CN2C1=O [DANOPREVIR] ; measured Kd: 1.6
